# assay-comment: Rat hepatocyte stability experiment
# Type: in vitro ADME
# test-conditions: rat hepatocytes, 30 min, average value
Residual percentage (%) 30 min: recorded values
property: Residual percentage (%) 30 min

>>> df
                            compound_smiles                        property  units_of_measure  observed_measurement
0  O=S(=O)(Nc1ccc2[nH]nc(/C=C/c3ccccn3)c2c1)c1cc(F)cc(F)c1  Residual percentage (%) 30 min                 %                 73.15
1  C[C@@H](Nc1ccc2[nH]nc(/C=C/c3ccccn3)c2c1)c1cc(F)cc(F)c1  Residual percentage (%) 30 min                 %                 14.84
2  C[C@@H](Nc1cnc2[nH]nc(/C=C/c3ccccn3)c2c1)c1cc(F)cc(F)c1  Residual percentage (%) 30 min                 %                  1.36

Where these numbers come from: patent US20220281821A1
